assay: Single-dose plasma pharmacokinetics after i.g. administration; format: in vivo, SD rats; settings: SD, rat, plasma, po; i.g. 2 mg/kg single dose, male rats; read-out: Vz/F
QUANTITY: Vd/F (L/kg)
Your answer should be a plain number; it is taken to be in L/kg.

Entry C[C@H]1CC[C@@H]2N(C1)C[C@H]1[C@@H]3C[C@H]4[C@@H](CC(=O)[C@H]5C[C@@H](O)CC[C@@]54C)[C@@H]3CC[C@@H]1[C@]2(C)O has what Vd/F?
19.4

###

assay: Single-dose plasma pharmacokinetics after i.g. administration; type: in vivo, SD rats; conditions: SD, rat, plasma, po; i.g. 4 mg/kg single dose, female rats; read-out: Vz/F
QUANTITY: Vd/F (L/kg)
Write the value in L/kg as a bare number.

Fill blank: measured Vd/F of the molecule C[C@H]1CC[C@@H]2N(C1)C[C@H]1[C@@H]3C[C@H]4[C@@H](CC(=O)[C@H]5C[C@@H](O)CC[C@@]54C)[C@@H]3CC[C@@H]1[C@]2(C)O is ____.
387

###

test: Multiple-dose (successive i.g.) plasma pharmacokinetics; assay type: in vivo, SD rats; conditions: SD, rat, plasma, po; successive i.g. 2 mg/kg, male rats; read-out: t1/2z (converted)
QUANTITY: half-life

Please look up its half-life: C[C@H]1CC[C@@H]2N(C1)C[C@H]1[C@@H]3C[C@H]4[C@@H](CC(=O)[C@H]5C[C@@H](O)CC[C@@]54C)[C@@H]3CC[C@@H]1[C@]2(C)O [verticinone, Verticinone]
2.08 h

###

test: Single-dose plasma pharmacokinetics after i.g. administration; type: in vivo, SD rats; settings: SD, rat, plasma, po; i.g. 2 mg/kg single dose, female rats
QUANTITY: AUC(0-t) (ng·h/mL)
Numeric only. Scale: ng·h/mL

// query AUC(0-t) value for entry C[C@H]1CC[C@@H]2N(C1)C[C@H]1[C@@H]3C[C@H]4[C@@H](CC(=O)[C@H]5C[C@@H](O)CC[C@@]54C)[C@@H]3CC[C@@H]1[C@]2(C)O [verticinone, Verticinone]
17.3

###

Assay: Plasma protein binding in vitro by ultrafiltration, rat plasma
Assay type: in vitro ADME, rats
Conditions: rat plasma, 30 ng/mL, ultrafiltration, n = 4; read-out: Protein binding rates (%)
Experimental: The ability of verticinone to bind to plasma protein was determined by the ultrafiltration method. A Centrifree Micropartition device (Millipore, Beverly, MA, USA) was used to separate unbound and bound verticinone. […] The spiked plasma was incubated for 30 min at 37 °C and an aliquot (100 μL) was analyzed by previously described methods to determine the total concentration of verticinone. […]
QUANTITY: fraction unbound at 30 min, 30 ng/mL
I'd appreciate a reply containing only the number, no unit.

Form field: reported fraction unbound at 30 min, 30 ng/mL of C[C@H]1CC[C@@H]2N(C1)C[C@H]1[C@@H]3C[C@H]4[C@@H](CC(=O)[C@H]5C[C@@H](O)CC[C@@]54C)[C@@H]3CC[C@@H]1[C@]2(C)O
0.09

###

test: Single-dose plasma pharmacokinetics after i.g. administration; assay type: in vivo, SD rats; details: SD, rat, plasma, po; i.g. 1 mg/kg single dose, female rats
QUANTITY: Tmax (min)
Please respond with the number in min and leave the unit unwritten.

Fill in the blank: the reported Tmax of C[C@H]1CC[C@@H]2N(C1)C[C@H]1[C@@H]3C[C@H]4[C@@H](CC(=O)[C@H]5C[C@@H](O)CC[C@@]54C)[C@@H]3CC[C@@H]1[C@]2(C)O is ____.
40.2

###

Test: Plasma protein binding in vitro by ultrafiltration, human plasma
Type: in vitro ADME, humans
Conditions: human plasma, 100 ng/mL, ultrafiltration, n = 4; read-out: Protein binding rates (%) (converted)
Method: The ability of verticinone to bind to plasma protein was determined by the ultrafiltration method. A Centrifree Micropartition device (Millipore, Beverly, MA, USA) was used to separate unbound and bound verticinone. […] The spiked plasma was incubated for 30 min at 37 °C and an aliquot (100 μL) was analyzed by previously described methods to determine the total concentration of verticinone. […]
QUANTITY: fraction unbound at 30 min, 100 ng/mL
Answer as a number with no unit attached.

Fill blank: measured fraction unbound at 30 min, 100 ng/mL of the molecule C[C@H]1CC[C@@H]2N(C1)C[C@H]1[C@@H]3C[C@H]4[C@@H](CC(=O)[C@H]5C[C@@H](O)CC[C@@]54C)[C@@H]3CC[C@@H]1[C@]2(C)O is ____.
0.054

###

assay: Single-dose plasma pharmacokinetics after i.g. administration; type: in vivo, SD rats; conditions: SD, rat, plasma, po; i.g. 4 mg/kg single dose, male rats
QUANTITY: AUC(0-inf) (ng·h/mL)
Reply with just the number (in ng·h/mL).

Please give the measured AUC(0-inf) for this compound: C[C@H]1CC[C@@H]2N(C1)C[C@H]1[C@@H]3C[C@H]4[C@@H](CC(=O)[C@H]5C[C@@H](O)CC[C@@]54C)[C@@H]3CC[C@@H]1[C@]2(C)O
769
